Provenance of the data: patent US20090053750A1

target: T1, class I MHC receptor HLA-A2 on T2 cells (human); assay: T2 cells pulsed with peptide + b2m, anti-HLA-A2 flow cytometry; Assay #2
T1 construct: detected on the cell surface with a mouse anti-human HLA-A2 monoclonal antibody and goat anti-mouse IgG F(ab')2-FITC; also called HLA-A2 receptor; HLA-A2 class I MHC
The following binders are listed with their measured fluorescence index values.
In your answer, state the number alone without any accompanying words.

binder="KLILGLVWT [Filamin B peptide #7]" property_measured="fluorescence index" value=1.25
binder="LILGLVWTL [Filamin B peptide #1]" property_measured="fluorescence index" value=2.17
binder="SLQESGLKV [Filamin B peptide #4]" property_measured="fluorescence index" value=1.61
binder="GLAPLEVRV [Filamin B peptide #3]" property_measured="fluorescence index" value=3.64

# binder GQGDVMVFV [Filamin B peptide #6] ; its fluorescence index = 1.96
